Parameter EC50: see the listing below.
biological target: cynomolgus LIV-1 (cynomolgus, UniProt A0A2K5WH46 30-741); assay: FACS, cyno LIV-1 cells
Sequence (A0A2K5WH46 entry or part of it): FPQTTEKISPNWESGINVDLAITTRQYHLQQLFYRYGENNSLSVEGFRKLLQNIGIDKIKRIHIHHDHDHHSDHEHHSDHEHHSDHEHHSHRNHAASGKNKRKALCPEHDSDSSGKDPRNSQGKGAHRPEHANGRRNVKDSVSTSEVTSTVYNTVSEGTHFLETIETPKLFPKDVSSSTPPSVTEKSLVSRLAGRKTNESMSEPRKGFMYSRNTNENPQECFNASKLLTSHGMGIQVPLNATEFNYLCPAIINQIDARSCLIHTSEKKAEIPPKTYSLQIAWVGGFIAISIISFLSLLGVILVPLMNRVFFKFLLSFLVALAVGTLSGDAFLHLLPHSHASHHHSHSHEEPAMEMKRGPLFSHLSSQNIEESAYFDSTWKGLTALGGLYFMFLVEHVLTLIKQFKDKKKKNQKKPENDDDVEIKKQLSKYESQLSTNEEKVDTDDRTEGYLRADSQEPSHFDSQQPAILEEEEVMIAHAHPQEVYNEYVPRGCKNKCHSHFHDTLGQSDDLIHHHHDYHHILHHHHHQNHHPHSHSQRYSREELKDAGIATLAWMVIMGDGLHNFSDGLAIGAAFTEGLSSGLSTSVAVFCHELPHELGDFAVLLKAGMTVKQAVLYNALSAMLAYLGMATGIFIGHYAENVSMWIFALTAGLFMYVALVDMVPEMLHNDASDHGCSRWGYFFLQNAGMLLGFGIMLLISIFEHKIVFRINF

binder | readout.units | EC50
290F10G10.p1.Z11 (antibody, V domains shown) VH: EVQLVQSGAEVKKPGASVKVSCKASGYTFTSYWIHWVRQAPGQGLEWMGTIYPGDADTRSTQKFKDRVTVTADKSTSTVYMELSSLRSEDTAVYYCTRSLIHDDYDKYYFDYWGQGTTVTVSS VL: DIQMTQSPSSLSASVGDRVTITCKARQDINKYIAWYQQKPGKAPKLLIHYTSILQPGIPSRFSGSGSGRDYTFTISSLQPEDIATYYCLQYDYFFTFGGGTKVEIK | nM | 0.32
290F10G10.p1.Z13 (antibody, V domains shown) VH: EVQLVQSGAEVKKPGASVKVSCKASGYTFTSYWIHWVRQAPGQGLEWIGTIYPGDADTRSTQKFKDKATVTADKSTSTVYMELSSLRSEDTAVYYCTRSLIHDDYDKYYFDYWGQGTTVTVSS VL: DIQMTQSPSSLSASVGDRVTITCKARQDINKYIAWYQQKPGKAPKLLIYYTSILQPGVPSRFSGSGSGRDYTFTISSLQPEDIATYYCLQYDYFFTFGGGTKVEIK | nM | 0.46

Reference source: patent US20240325555A1
